tested on: P93_24; test: qHTS profiling for inhibitors of Plasmodium falciparum proliferation (AID 504749); further: nearly all actives have a fitted effect of over 60% in size; conditions: P. falciparum in erythrocytes, SYBR Green DNA, 72 h; series mostly up to 12.8 µM
Results filed as inconclusive are left out. The source made the active and inactive calls. The call rests on the fitted dose curve; in most records, active means well fitted inhibition curve with a large enough effect; inconclusive means small, poorly fitted or top-dose-only effect; inactive means flat fitted curve, though single readings scatter.
Labels: t = active, f = inactive

[[record]]
smiles_str = "CC[C@H](NC(C)C)[C@H](O)c1ccc(O)c(O)c1"
label_value = "f"

[[record]]
smiles_str = "CN[C@@H]1[C@H](O[C@@H]2O[C@H](CO)[C@@H](N)[C@H](O)[C@@H]2O)O[C@H]2C[C@@H](N)[C@@H](O[C@H]3[C@@H](O)[C@H](O)[C@H](N)C[C@@H]3N)O[C@H]2[C@H]1O"
label_value = "f"

[[record]]
smiles_str = "Cc1cc(/C=C\\c2ccc3cc(N(C)C)ccc3[n+]2C)c(C)n1-c1ccccc1"
label_value = "t"

[[record]]
smiles_str = "NC(=O)OC[C@H](O)COc1ccc(Cl)cc1"
label_value = "f"

[[record]]
smiles_str = "NC(N)=NC[C@@H]1COC2(CCCCC2)O1"
label_value = "f"

[[record]]
smiles_str = "CCCN(CCC)C(=O)[C@@H](CCC(=O)O)NC(=O)c1ccccc1"
label_value = "f"

[[record]]
smiles_str = "C[C@H](NCCc1ccc(O)cc1)[C@@H](O)c1ccc(O)cc1"
label_value = "f"

[[record]]
smiles_str = "CC(=O)N(CC(O)CN(C(C)=O)c1c(I)c(C(=O)NC[C@@H](O)CO)c(I)c(C(=O)NC[C@@H](O)CO)c1I)c1c(I)c(C(=O)NC[C@@H](O)CO)c(I)c(C(=O)NC[C@@H](O)CO)c1I"
label_value = "f"

[[record]]
smiles_str = "O=C(O)/C=C\\c1ccc(Cn2ccnc2)cc1"
label_value = "f"


----------
target: Glucocorticoid receptor (Homo sapiens) (UniProt P04150); test: GR-GFP Redistribution (AID 450); details: U2OS GR-GFP nuclear translocation, laser cytometry, 2 h; further: potency means the concentration at half of the fitted maximal effect
Sequence (P04150 whole entry, looked up): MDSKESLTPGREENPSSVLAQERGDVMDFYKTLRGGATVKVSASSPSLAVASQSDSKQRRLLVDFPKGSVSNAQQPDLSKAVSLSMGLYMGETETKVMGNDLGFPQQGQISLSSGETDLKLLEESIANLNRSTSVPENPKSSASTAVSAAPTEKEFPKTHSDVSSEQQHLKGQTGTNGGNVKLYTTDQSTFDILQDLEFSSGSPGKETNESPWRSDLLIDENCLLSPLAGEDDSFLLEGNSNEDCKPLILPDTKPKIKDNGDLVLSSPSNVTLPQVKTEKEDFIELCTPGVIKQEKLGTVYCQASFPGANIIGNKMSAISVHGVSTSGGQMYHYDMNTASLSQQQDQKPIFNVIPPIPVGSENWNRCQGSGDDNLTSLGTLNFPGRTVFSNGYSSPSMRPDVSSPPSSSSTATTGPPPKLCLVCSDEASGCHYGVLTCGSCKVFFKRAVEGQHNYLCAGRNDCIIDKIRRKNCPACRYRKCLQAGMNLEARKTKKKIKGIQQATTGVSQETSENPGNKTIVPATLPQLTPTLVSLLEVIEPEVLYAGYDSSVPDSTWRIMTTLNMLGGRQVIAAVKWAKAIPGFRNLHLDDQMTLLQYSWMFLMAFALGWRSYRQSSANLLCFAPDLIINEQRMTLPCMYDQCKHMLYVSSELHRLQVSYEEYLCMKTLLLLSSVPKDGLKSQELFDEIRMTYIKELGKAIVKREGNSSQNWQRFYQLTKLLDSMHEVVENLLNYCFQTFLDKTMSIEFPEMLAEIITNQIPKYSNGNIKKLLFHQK
Activity calls are given as the source filed them.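 How the source made its calls: active means compounds whose dose series gives a full or clear partial fitted curve of increased nuclear translocation; inconclusive means weak partial curve or effect only at the top dose; inactive means no dose-dependent translocation response.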
Measured endpoint: Potency

[[record]]
smiles_str = "COCCn1c(=O)c(-c2ccccc2)nc2cnc(N3CCN(C)CC3)nc21"
measured_endpoint = "Potency"
observed_value = "> 9.22 µM (inactive)"

[[record]]
smiles_str = "COc1cccc(Nc2ncc3nc(-c4ccc(Cl)cc4)c(=O)n(CCC#N)c3n2)c1"
measured_endpoint = "Potency"
observed_value = "> 9.22 µM (inactive)"

[[record]]
smiles_str = "Cn1c(=O)c(-c2ccc(Cl)cc2)nc2cnc(OCc3ccccc3)nc21"
measured_endpoint = "Potency"
observed_value = "> 9.22 µM (inactive)"

[[record]]
smiles_str = "CNc1ncnc2ccc(-c3ccccc3C#N)cc12"
measured_endpoint = "Potency"
observed_value = "> 46 µM (inactive)"

[[record]]
smiles_str = "CN1CCN(c2ncc3ncc(=O)n(-c4ccccc4)c3n2)CC1"
measured_endpoint = "Potency"
observed_value = "> 9.22 µM (inactive)"

[[record]]
smiles_str = "COc1ncc2nc(-c3ccc(Cl)cc3)c(=O)n(Cc3cccs3)c2n1"
measured_endpoint = "Potency"
observed_value = "> 9.22 µM (inactive)"

[[record]]
smiles_str = "C[C@@H]1CCC[C@H](C)N1NC(=O)c1ccc(Cl)c(S(N)(=O)=O)c1"
measured_endpoint = "Potency"
observed_value = "> 20.6 µM (inactive)"

[[record]]
smiles_str = "CC(=O)NCCNc1ncnc2ccc(-c3ccccc3Cl)cc12"
measured_endpoint = "Potency"
observed_value = "> 46 µM (inactive)"

[[record]]
smiles_str = "COc1cccc(-c2nc(N(C)Cc3ccco3)c3ccccc3n2)c1"
measured_endpoint = "Potency"
observed_value = "> 46 µM (inactive)"

[[record]]
smiles_str = "COc1ccccc1CNc1ncnc2ccc(-c3ccccc3C#N)cc12"
measured_endpoint = "Potency"
observed_value = "> 46 µM (inactive)"

[[record]]
smiles_str = "COCCn1c(=O)c(-c2ccc(Cl)cc2)nc2cnc(N(C)C)nc21"
measured_endpoint = "Potency"
observed_value = "> 9.22 µM (inactive)"


----------
molecular target: Cytochrome P450 2C9 (Homo sapiens) (UniProt P11712); assay: qHTS Assay for Inhibitors and Substrates of Cytochrome P450 2C9 (AID 883); settings: recombinant CYP2C9, luciferin-H luminescence, 60 min; series mostly up to 57.1 µM; further: nearly all actives have a fitted effect of over 60% in size
Sequence (P11712 whole entry, looked up): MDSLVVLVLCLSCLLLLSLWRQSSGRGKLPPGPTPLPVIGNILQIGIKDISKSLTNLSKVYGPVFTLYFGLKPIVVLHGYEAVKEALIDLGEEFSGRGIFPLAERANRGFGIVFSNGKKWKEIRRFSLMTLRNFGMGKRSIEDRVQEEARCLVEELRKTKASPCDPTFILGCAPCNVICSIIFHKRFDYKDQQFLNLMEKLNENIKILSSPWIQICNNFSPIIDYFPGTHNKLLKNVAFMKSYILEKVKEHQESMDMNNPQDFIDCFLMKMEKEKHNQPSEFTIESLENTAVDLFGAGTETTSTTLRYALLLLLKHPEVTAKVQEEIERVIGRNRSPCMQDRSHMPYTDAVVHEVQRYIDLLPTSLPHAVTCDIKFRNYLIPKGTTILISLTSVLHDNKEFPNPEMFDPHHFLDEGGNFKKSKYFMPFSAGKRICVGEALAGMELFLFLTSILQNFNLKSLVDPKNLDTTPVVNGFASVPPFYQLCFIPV
Records with an inconclusive call do not appear. Active and inactive are the calls of the source. Calls come from the whole dose curve; as a rule, active = well fitted inhibition curve with a large enough effect; inconclusive = small, poorly fitted or top-dose-only effect; inactive = no such curve, though single readings can be large or run the other way.
Labels: active, inactive

[[record]]
smiles_str = "COc1ccccc1CCn1c(=O)c(-c2cccs2)nc2cncnc21"
label_value = "active"

[[record]]
smiles_str = "COCC(=O)N1CCC2(CCN(Cc3ccncc3)CC2)CC1"
label_value = "active"

[[record]]
smiles_str = "COc1cccc(-c2ccc3ncnc(NCCc4c[nH]c5ccc(OC)cc45)c3c2)c1"
label_value = "active"

[[record]]
smiles_str = "O=c1c(-c2cccs2)nc2cnc(Oc3cccc(Cl)c3)nc2n1C[C@H]1CCCO1"
label_value = "active"

[[record]]
smiles_str = "O=C(c1ccco1)N1CCC[C@@]2(CCN(c3cccc(-c4ccccc4)c3)C2)C1"
label_value = "active"

[[record]]
smiles_str = "COc1ccc2[nH]cc(CCNc3nc(-c4ccc(N(C)C)cc4)nc4ccccc34)c2c1"
label_value = "active"

[[record]]
smiles_str = "O=C(Oc1ccccc1)N1CCC2(CC1)CN(c1ccncc1)C2"
label_value = "active"

[[record]]
smiles_str = "O=c1c(-c2cccc(Cl)c2)nc2cncnc2n1Cc1ccccc1"
label_value = "active"

[[record]]
smiles_str = "COCC(=O)N1CCC2(CC1)CN(Cc1nccs1)C2"
label_value = "inactive"

[[record]]
smiles_str = "CCNc1ncc2nc(-c3ccccc3)c(=O)n(Cc3ccc(F)cc3)c2n1"
label_value = "inactive"

[[record]]
smiles_str = "N#Cc1cccc(NC(=O)N2CCCC3(CCN(C(=O)c4ccco4)CC3)C2)c1"
label_value = "active"


----------
Examples of molecules with documented max response follow.
test: qHTS Assay for Lipid Storage Modulators (AID 1519); settings: Drosophila S3 cells, BODIPY lipid droplet/cell ratio, laser cytometry; measured here: cell count channel max response; cells loaded with oleic acid
Results filed as inconclusive are left out.
Measured endpoint: max response (%)

[[record]]
molecule = "Cn1cccc1C(=O)N1CCC2(CC1)CCN(C(c1ccccc1)c1ccccc1)CC2"
observed_value = 11.8

[[record]]
molecule = "CC(=O)NCCNc1nc(-c2ccccc2CN(C)C)nc2ccccc12"
observed_value = 13.1

[[record]]
molecule = "O=C(Nc1cccc(F)c1)N1CC2(CCN(C(=O)c3cc(C(F)(F)F)cc(C(F)(F)F)c3)CC2)C1"
observed_value = 16.9

[[record]]
molecule = "O=C(c1cc(C(F)(F)F)cc(C(F)(F)F)c1)N1CCC[C@@]2(CCN(c3ccccc3)C2)C1"
observed_value = 10.6

[[record]]
molecule = "Cn1cccc1C(=O)N1CCC2(CCCN(C(c3ccccc3)c3ccccc3)C2)CC1"
observed_value = 6.53

[[record]]
molecule = "Nc1ncnc2c1ncn2[C@@H]1O[C@H](COP(=O)(O)OP(=O)(O)OP(=O)(O)OP(=O)(O)OC[C@@H]2O[C@H](n3cnc4c(N)ncnc43)[C@@H](O)[C@@H]2O)[C@H](O)[C@H]1O"
observed_value = 17

[[record]]
molecule = "OC[C@H]1O[C@@H](n2cnc3c(NCc4ccco4)ncnc32)[C@H](O)[C@@H]1O"
observed_value = -12.6

[[record]]
molecule = "CN1[C@@H]2CC[C@H]1CC(OC(=O)[C@@H](O)c1ccccc1)C2 (stereo partly drawn)"
observed_value = 4.94


----------
test: qHTS Assay for Lipid Storage Modulators (AID 1519); conditions: Drosophila S3 cells, BODIPY lipid droplet/cell ratio, laser cytometry; measured here: lipid channel max response; cells loaded with oleic acid
Results filed as inconclusive are left out.
Examples of compounds with documented max response follow.
Measured endpoint: max response (%)

[[record]]
smiles_str = "COc1ccc2[nH]cc(CCNc3ncnc4ccc(-c5ccc6c(c5)OCO6)cc34)c2c1"
measured_endpoint = "max response"
observed_value = -5.39

[[record]]
smiles_str = "CNC(=O)[C@H]1O[C@@H](n2cnc3c(N)ncnc32)[C@H](O)[C@H]1O"
measured_endpoint = "max response"
observed_value = -24.5

[[record]]
smiles_str = "Cn1cccc1C(=O)N1CCC2(CCN(Cc3ccc(C#N)cc3)CC2)CC1"
measured_endpoint = "max response"
observed_value = 9.77

[[record]]
smiles_str = "COc1ccc(Oc2ncc3nc(-c4ccc(Cl)cc4)c(=O)n(C4CC4)c3n2)cc1"
measured_endpoint = "max response"
observed_value = 5.63

[[record]]
smiles_str = "O=C(Nc1ccccc1)N1CC[C@@]2(CCCN(C(=O)c3cccc(F)c3)C2)C1"
measured_endpoint = "max response"
observed_value = 27.2


----------
Target: Cytochrome P450 2C19 (Homo sapiens) (UniProt P33261)
Sequence (P33261 whole entry, looked up): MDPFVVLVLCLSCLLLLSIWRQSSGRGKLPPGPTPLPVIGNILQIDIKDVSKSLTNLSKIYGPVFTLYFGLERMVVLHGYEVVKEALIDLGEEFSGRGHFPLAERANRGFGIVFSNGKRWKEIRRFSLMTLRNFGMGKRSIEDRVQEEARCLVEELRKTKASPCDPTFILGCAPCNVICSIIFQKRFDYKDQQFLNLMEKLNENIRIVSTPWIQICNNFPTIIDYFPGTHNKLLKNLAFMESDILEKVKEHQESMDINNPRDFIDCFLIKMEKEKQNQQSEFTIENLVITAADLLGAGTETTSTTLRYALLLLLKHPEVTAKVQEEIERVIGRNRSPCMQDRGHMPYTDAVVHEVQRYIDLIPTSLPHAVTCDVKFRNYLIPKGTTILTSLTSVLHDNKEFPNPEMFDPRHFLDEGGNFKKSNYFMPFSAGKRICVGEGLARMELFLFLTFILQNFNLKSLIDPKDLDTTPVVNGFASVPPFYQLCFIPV
Assay: qHTS Assay for Inhibitors and Substrates of Cytochrome P450 2C19 (AID 899); further: nearly all actives have a fitted effect of over 60% in size
Conditions: recombinant CYP2C19, luciferin-H EGE luminescence; series mostly up to 57.1 µM
Method: NIH Molecular Libraries Screening Centers Network [MLSCN] NIH Chemical Genomics Center [NCGC] The P450 gene superfamily is involved in the metabolism and clearance of xenobiotics. […] The luciferin is then measured by luminescence after the addition of a luciferase detection reagent. […] Inhibitors and some substrates limit the production of luciferin, and decrease measured luminescence. […]
Inconclusive results are not listed. Activity calls are given as the source filed them. Calls come from the whole dose curve; as a rule, active = well fitted inhibition curve with a large enough effect; inconclusive = small, poorly fitted or top-dose-only effect; inactive = no such curve, though single readings can be large or run the other way.
Labels: active, inactive

[[record]]
smiles_str = "COc1ccc(C(=O)N2CCC[C@@]3(CCN(c4cccc(-c5ccccc5)c4)C3)C2)cc1"
target_of_assay = "Cytochrome P450 2C19 (Homo sapiens) (UniProt P33261)"
label_value = "active"

[[record]]
smiles_str = "N#CCCn1c(=O)cnc2cnc(OCc3ccccc3)nc21"
target_of_assay = "Cytochrome P450 2C19 (Homo sapiens) (UniProt P33261)"
label_value = "inactive"

[[record]]
smiles_str = "N#Cc1cccc(NC(=O)N2CC[C@@]3(CCCN(C(=O)c4cc(C(F)(F)F)cc(C(F)(F)F)c4)C3)C2)c1"
target_of_assay = "Cytochrome P450 2C19 (Homo sapiens) (UniProt P33261)"
label_value = "inactive"

[[record]]
smiles_str = "COc1cc2ccc(=O)oc2cc1O"
target_of_assay = "Cytochrome P450 2C19 (Homo sapiens) (UniProt P33261)"
label_value = "inactive"

[[record]]
smiles_str = "O=C(Oc1ccccc1)N1CCC2(CCCN(c3ccccn3)C2)CC1"
target_of_assay = "Cytochrome P450 2C19 (Homo sapiens) (UniProt P33261)"
label_value = "active"

[[record]]
smiles_str = "COc1cccc(-c2cc(NCc3ccc(OC)cc3OC)ncn2)c1"
target_of_assay = "Cytochrome P450 2C19 (Homo sapiens) (UniProt P33261)"
label_value = "active"

[[record]]
smiles_str = "CN1CCN(c2ncc3nc(-c4ccc(Cl)cc4)c(=O)n(CCC#N)c3n2)CC1"
target_of_assay = "Cytochrome P450 2C19 (Homo sapiens) (UniProt P33261)"
label_value = "inactive"

[[record]]
smiles_str = "Cn1cc(-c2nc3cnc(N4CCNCC4)nc3n(Cc3ccc(F)cc3)c2=O)c2ccccc21"
target_of_assay = "Cytochrome P450 2C19 (Homo sapiens) (UniProt P33261)"
label_value = "active"

[[record]]
smiles_str = "COc1ccccc1-c1cncnc1NCc1cccs1"
target_of_assay = "Cytochrome P450 2C19 (Homo sapiens) (UniProt P33261)"
label_value = "active"

[[record]]
smiles_str = "Cc1noc(C)c1C(=O)N1CCC[C@@]2(CCN(Cc3ccc(C#N)cc3)C2)C1"
target_of_assay = "Cytochrome P450 2C19 (Homo sapiens) (UniProt P33261)"
label_value = "inactive"

[[record]]
smiles_str = "CCCCCCCNS(=O)(=O)c1cccc2c(Cl)cccc12"
target_of_assay = "Cytochrome P450 2C19 (Homo sapiens) (UniProt P33261)"
label_value = "active"


Entry source: PubChem BioAssay (NCATS)
